Measurement record for Aurora kinase B (Homo sapiens); quantity recorded: IC50.
measurement-type: IC50

[[record]]
smiles_input = "Cc1cn2c(-c3cnn(CC(=O)NCc4cccc(F)c4F)c3)cnc2c(Nc2cc(CN3CCCCC3)ns2)n1"
measurement_type = "IC50"
reading = "≤ 13 nM"

[[record]]
smiles_input = "Cc1cn2c(-c3cnn(Cc4nc(-c5ccccc5)no4)c3)cnc2c(Nc2cc(CN3CCCCC3)ns2)n1"
measurement_type = "IC50"
reading = "≤ 13 nM"

[[record]]
smiles_input = "Cc1cn2c(-c3cnn(CC(=O)N(C)C)c3)cnc2c(Nc2cc(CN3CCCCC3)ns2)n1"
measurement_type = "IC50"
reading = "> 3000 nM"

[[record]]
smiles_input = "Cc1cn2c(-c3cnn(CC(=O)Nc4cccc(F)c4F)c3)cnc2c(Nc2cc(CN3CCCCC3)ns2)n1"
measurement_type = "IC50"
reading = "≤ 13 nM"

[[record]]
smiles_input = "Cc1cn2c(-c3cnn(CC(=O)NCc4cc(F)cc(F)c4)c3)cnc2c(Nc2cc(CN3CCCCC3)ns2)n1"
measurement_type = "IC50"
reading = "≤ 13 nM"


----------
Each entry below carries its recorded pEC50.
target: Aurora kinase B (Homo sapiens); experiment: Inhibition of aurora B kinase in human HCT116 cells assessed as inhibition of histone H3 phosphorylation incubated for 1 hr by Hoechst 33342 staining based microscopic analysis
Sequence (Q96GD4 whole entry): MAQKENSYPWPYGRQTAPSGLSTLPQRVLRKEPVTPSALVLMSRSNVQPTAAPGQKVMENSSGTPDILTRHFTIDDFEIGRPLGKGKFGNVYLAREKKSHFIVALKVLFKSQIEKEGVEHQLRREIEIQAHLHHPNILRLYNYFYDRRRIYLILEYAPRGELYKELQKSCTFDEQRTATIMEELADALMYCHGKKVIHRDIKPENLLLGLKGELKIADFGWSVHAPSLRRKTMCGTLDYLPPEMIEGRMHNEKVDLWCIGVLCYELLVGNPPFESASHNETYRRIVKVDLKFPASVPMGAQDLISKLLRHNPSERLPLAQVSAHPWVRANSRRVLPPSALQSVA
pEC50: −log10 of the molar value.
measurement-type: pEC50

[[record]]
compound = "Cc1cn2c(-c3cnn(CC(=O)Nc4nccs4)c3)cnc2c(Nc2cc(CN3CCCC(C)C3)ns2)n1 (stereo not given)"
target_of_assay = "Aurora kinase B (Homo sapiens)"
reading = "< 6.00"

[[record]]
compound = "Cc1cn2c(-c3cnn(CC(=O)NCc4cccc(C(F)(F)F)c4)c3)cnc2c(Nc2cc(CN3CCCC(C)C3)ns2)n1 (stereo not given)"
target_of_assay = "Aurora kinase B (Homo sapiens)"
reading = "< 6.00"

[[record]]
compound = "Cc1cn2c(-c3cnn(Cc4nc(-c5ccccc5)no4)c3)cnc2c(Nc2cc(CN3CCCCC3)ns2)n1"
target_of_assay = "Aurora kinase B (Homo sapiens)"
reading = "< 6.00"

[[record]]
compound = "Cc1cn2c(-c3cnn(Cc4noc(-c5ccccc5)n4)c3)cnc2c(Nc2cc(CN3CCCCC3)ns2)n1"
target_of_assay = "Aurora kinase B (Homo sapiens)"
reading = "< 6.00"

[[record]]
compound = "Cc1cn2c(-c3cnn(CC(=O)Nc4cccc(F)n4)c3)cnc2c(Nc2cc(CN3CCCC(C)C3)ns2)n1 (stereo not given)"
target_of_assay = "Aurora kinase B (Homo sapiens)"
reading = 6.79

